target: T1, human CTLA-4, full-length, expressed on transfected Expi293 cells (human, UniProt P16410 36-223); assay: flow cytometry, 100 nM, Expi293 cells with human CTLA-4
T1 construct: whole, on cells
T1 sequence (P16410 36-223): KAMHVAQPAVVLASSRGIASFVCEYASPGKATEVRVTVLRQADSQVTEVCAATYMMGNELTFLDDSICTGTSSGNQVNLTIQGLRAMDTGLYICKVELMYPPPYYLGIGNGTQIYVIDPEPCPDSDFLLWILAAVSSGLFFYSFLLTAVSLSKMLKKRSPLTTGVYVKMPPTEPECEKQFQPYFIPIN
MEASUREMENT KIND: MFI ratio to WT (ΔWT) (fold)
Unit fold implied. Number only.

Q: Any idea what MFI ratio to WT (ΔWT) was measured for wild-type ICOSL IgV-Fc fusion (Fc fusion, also called WT ICOSL) DTQEKEVRAMVGSDVELSCACPEGSRFDLNDVYVYWQTSESKTVVTYHIPQNSSLENVDSRYRNRALMSPAGMLRGDFSLRLFNVTPQDEQKFHCLVLSQSLGFQEVLSVEVTLHVAANFSVGSGGGGSEPKSSDKTHTCPPCPAPEAEGAPSVFLFPPKPKDTLMISRTPEVTCVVVDVSHEDPEVKFNWYVDGVEVHNAKTKPREEQYNSTYRVVSVLTVLHQDWLNGKEYKCKVSNKALPAPIEKTISKAKGQPREPQVYTLPPSREEMTKNQVSLTCLVKGFYPSDIAVEWESNGQPENNYKTTPPVLDSDGSFFLYSKLTVDKSRWQQGNVFSCSVMHEALHNHYTQKSLSLSPG ?
A: 1

Q: Could you share which MFI ratio to WT (ΔWT) value was measured for variant ICOSL IgV-Fc fusion N52K/N57Y/Q100R (Fc fusion) DTQEKEVRAMVGSDVELSCACPEGSRFDLNDVYVYWQTSESKTVVTYHIPQKSSLEYVDSRYRNRALMSPAGMLRGDFSLRLFNVTPQDEQKFHCLVLSRSLGFQEVLSVEVTLHVAANFSVGSGGGGSEPKSSDKTHTCPPCPAPEAEGAPSVFLFPPKPKDTLMISRTPEVTCVVVDVSHEDPEVKFNWYVDGVEVHNAKTKPREEQYNSTYRVVSVLTVLHQDWLNGKEYKCKVSNKALPAPIEKTISKAKGQPREPQVYTLPPSREEMTKNQVSLTCLVKGFYPSDIAVEWESNGQPENNYKTTPPVLDSDGSFFLYSKLTVDKSRWQQGNVFSCSVMHEALHNHYTQKSLSLSPG ?
A: 0.71
